Target: human CYP11B2 (Homo sapiens)
Sequence (P19099 25-503): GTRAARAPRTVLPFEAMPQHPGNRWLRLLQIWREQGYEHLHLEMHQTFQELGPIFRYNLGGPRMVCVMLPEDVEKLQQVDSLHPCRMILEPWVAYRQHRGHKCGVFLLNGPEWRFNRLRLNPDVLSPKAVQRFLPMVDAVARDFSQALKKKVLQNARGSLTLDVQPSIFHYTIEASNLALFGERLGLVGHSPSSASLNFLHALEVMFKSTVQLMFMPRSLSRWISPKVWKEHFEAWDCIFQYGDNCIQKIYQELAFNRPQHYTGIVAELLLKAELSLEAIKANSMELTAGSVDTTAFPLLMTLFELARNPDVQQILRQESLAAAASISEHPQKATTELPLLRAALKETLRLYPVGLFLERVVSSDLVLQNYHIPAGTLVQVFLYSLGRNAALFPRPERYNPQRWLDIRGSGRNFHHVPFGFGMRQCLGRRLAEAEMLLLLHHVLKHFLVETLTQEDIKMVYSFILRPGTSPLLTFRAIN
Assay: G-402 cellular enzyme assay, human CYP11B2 (aldosterone release, HTRF)
Conditions: G-402 cells expressing human CYP11B2; 1 μM Deoxycorticosterone
pEC50: −log10 of the molar value.

>  <Compound>
CCS(=O)(=O)N(C)Cc1cncc(-c2ccc3c(c2)CCC(=O)N3C)c1 [Example 182]

>  <pEC50>
8.22

$$$$
>  <Compound>
CC(NC(=O)c1ncccc1Cl)c1cncc(-c2ccc3c(c2)CCC(=O)N3C)c1 (single isomer, unassigned) [Example 230]

>  <pEC50>
9.00

$$$$
>  <Compound>
CN1C(=O)CCc2cc(-c3cncc(CNC(=O)c4ccnnc4)c3)ccc21 [Example 89]

>  <pEC50>
7.85

$$$$
>  <Compound>
CCS(=O)(=O)NC(C)c1cncc(-c2cc3c(cc2F)N(C)C(=O)CC3)c1 (single isomer, unassigned) [Example 191]

>  <pEC50>
8.00

$$$$
>  <Compound>
CN1C(=O)CCc2cc(-c3cncc(CNC(=O)C4CC4)c3)ccc21 [Example 41]

>  <pEC50>
7.17

$$$$
>  <Compound>
CN1C(=O)CCc2nc(-c3cccnc3)ccc21 [Example 34]

>  <pEC50>
6.38

$$$$
>  <Compound>
COC(=O)[C@@H]1CCCN1Cc1cncc(-c2ccc3c(c2)CCC(=O)N3C)c1 [Example 22]

>  <pEC50>
7.60

$$$$
>  <Compound>
Cc1oncc1C(=O)NCc1cncc(-c2cc3c(cc2F)N(C)C(=O)CC3)c1C [Example 259]

>  <pEC50>
9.00

$$$$

###

Measured log10(EC50), listed per entry.
Target: human CYP11B1 (Homo sapiens)
Sequence (P15538 25-503): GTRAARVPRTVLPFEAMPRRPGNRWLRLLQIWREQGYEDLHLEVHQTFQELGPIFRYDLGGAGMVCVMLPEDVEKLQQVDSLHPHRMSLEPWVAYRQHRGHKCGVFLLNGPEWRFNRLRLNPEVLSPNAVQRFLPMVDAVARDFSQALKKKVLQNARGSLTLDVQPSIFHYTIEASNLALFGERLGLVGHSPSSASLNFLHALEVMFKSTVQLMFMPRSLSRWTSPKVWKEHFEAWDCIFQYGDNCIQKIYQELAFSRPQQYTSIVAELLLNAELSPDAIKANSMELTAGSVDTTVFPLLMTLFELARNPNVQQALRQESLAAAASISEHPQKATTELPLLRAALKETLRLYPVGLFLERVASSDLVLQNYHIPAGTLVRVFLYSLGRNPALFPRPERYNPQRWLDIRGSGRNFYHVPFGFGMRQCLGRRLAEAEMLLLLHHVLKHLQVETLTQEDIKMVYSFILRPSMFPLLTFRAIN
Assay: G-402 cellular enzyme assay, human CYP11B1 (cortisol release, HTRF)
Conditions: G-402 cells expressing human CYP11B1; 1 μM Deoxycortisol
Quantity Kind: log10(EC50) (log10 of the value in nM)

>  <Compound>
CN1C(=O)CCc2cc(-c3cncc(CNC(=O)c4cccnn4)c3)ccc21

>  <log10(EC50)>
1.68

$$$$
>  <Compound>
CN1C(=O)CCc2cc(-c3cncc(CNC(=O)c4coc(C(F)(F)F)c4)c3)ccc21

>  <log10(EC50)>
2.72

$$$$
>  <Compound>
CCS(=O)(=O)NCc1cncc(-c2ccc3c(c2)CCC(=O)N3)c1

>  <log10(EC50)>
4.05

$$$$
>  <Compound>
CCC(=O)NC(C)c1cncc(-c2cc3c(cc2F)N(C)C(=O)CC3)c1 (racemic)

>  <log10(EC50)>
2.92

$$$$
>  <Compound>
Cc1noc(C)c1C(=O)NCc1cncc(-c2cc3c(cc2F)N(C)C(=O)CC3)c1C

>  <log10(EC50)>
3.67

$$$$
>  <Compound>
CN1C(=O)CCc2cc(-c3cncc(CNC(=O)c4ncccc4F)c3)ccc21

>  <log10(EC50)>
1.88

$$$$
>  <Compound>
CN1C(=O)CCc2cc(-c3cncc(OCCN4CCCS4(=O)=O)c3)ccc21

>  <log10(EC50)>
1.97

$$$$

###

molecular target: human CYP11B2 (Homo sapiens); assay: G-402 cellular enzyme assay, human CYP11B2 (aldosterone release, HTRF); conditions: G-402 cells expressing human CYP11B2; 1 μM Deoxycorticosterone
pEC50: −log10 of the molar value. Structures can show the parent of a compound that is named as a salt.
Listed here are molecules together with their documented pEC50.

>  <Molecule>
CN1C(=O)CCc2cc(-c3cncc(CN)c3)c(F)cc21

>  <pEC50>
7.77

$$$$
>  <Molecule>
COc1cc(C(=O)NCc2cncc(-c3ccc4c(c3)CCC(=O)N4C)c2)on1

>  <pEC50>
7.82

$$$$
>  <Molecule>
CN1C(=O)CCc2cc(-c3cncc(CNC(=O)c4coc(C(F)(F)F)c4)c3)ccc21

>  <pEC50>
7.47

$$$$
>  <Molecule>
CCS(=O)(=O)NC(C)c1cncc(-c2cc3c(cc2F)N(C)C(=O)CC3)c1 (single isomer, unassigned) [Example 190]

>  <pEC50>
8.15

$$$$
>  <Molecule>
CN1C(=O)CCc2cc(-c3cncc(CNC(=O)c4ncoc4C4CC4)c3)ccc21

>  <pEC50>
8.22

$$$$
>  <Molecule>
Cc1noc(C)c1C(=O)NC(C)(C)c1cncc(-c2ccc3c(c2)CCC(=O)N3C)c1

>  <pEC50>
7.74

$$$$
>  <Molecule>
CN1C(=O)CCc2cc(-c3cncc(CN4C(=O)CC[C@H]4CO)c3)ccc21

>  <pEC50>
7.31

$$$$
>  <Molecule>
CCS(=O)(=O)N(C)CCOc1cncc(-c2ccc3c(c2)CCC(=O)N3C)c1

>  <pEC50>
9.00

$$$$
>  <Molecule>
CN1C(=O)CCc2cc(-c3cncc(CNC(=O)c4cnn(C)c4)c3)ccc21

>  <pEC50>
7.77

$$$$
>  <Molecule>
CN1C(=O)CCc2cc(-c3cncc(CNS(=O)(=O)c4ccc(Cl)nc4)c3)ccc21

>  <pEC50>
6.62

$$$$
>  <Molecule>
CN1C(=O)CCc2cc(-c3cncc(OC[C@@H]4CCN4C(=O)OC(C)(C)C)c3)ccc21

>  <pEC50>
7.06

$$$$
>  <Molecule>
CN1C(=O)CCc2cc(-c3cncc(N4C(=O)CC[C@H]4CO)c3)ccc21

>  <pEC50>
6.50

$$$$
>  <Molecule>
CCC(=O)N1CCC[C@@H]1COc1cncc(-c2ccc3c(c2)CCC(=O)N3C)c1

>  <pEC50>
6.92

$$$$
>  <Molecule>
CN1C(=O)CCc2cc(-c3cncc(CN[S@+]([O-])C(C)(C)C)c3Cl)ccc21

>  <pEC50>
7.54

$$$$
>  <Molecule>
CN1C(=O)CCc2cc(-c3cncc(CN4CCS(=O)(=O)CC4)c3)ccc21

>  <pEC50>
8.52

$$$$
>  <Molecule>
Cc1cc(F)cc(C)c1C(=O)NCc1cncc(-c2ccc3c(c2)CCC(=O)N3C)c1

>  <pEC50>
7.64

$$$$
>  <Molecule>
CC(C)[C@H](CO)Nc1cncc(-c2ccc3c(c2)CCC(=O)N3C)n1

>  <pEC50>
6.76

$$$$
>  <Molecule>
CCS(=O)(=O)NCc1cncc(-c2cc(F)c3c(c2)CCC(=O)N3C)c1

>  <pEC50>
7.23

$$$$
>  <Molecule>
CN1C(=O)CCc2cc(-c3cncc(CNC(=O)c4cncnc4)c3)ccc21

>  <pEC50>
8.40

$$$$
>  <Molecule>
CN1C(=O)CCc2cc(-c3cncc(C4(NC(=O)c5ncccc5Cl)CC4)c3)ccc21

>  <pEC50>
8.22

$$$$
>  <Molecule>
CN1C(=O)CCc2cc(-c3cncc(C4(NC(=O)c5ncccc5Cl)CC4)c3)c(F)cc21

>  <pEC50>
8.52

$$$$
>  <Molecule>
CCN(Cc1cncc(-c2ccc3c(c2)CCC(=O)N3C)c1)S(=O)(=O)CC

>  <pEC50>
7.60

$$$$
>  <Molecule>
CN1C(=O)CCc2cc(-c3cncc(NCc4ccccc4)n3)ccc21

>  <pEC50>
8.30

$$$$
>  <Molecule>
O=C1CCc2nc(-c3cccnc3)ccc2N1

>  <pEC50>
5.90

$$$$
>  <Molecule>
CN1C(=O)CCc2cc(-c3cncc(OC4CNC4)c3)ccc21 [Example 70, hydrochloride]

>  <pEC50>
6.69

$$$$
>  <Molecule>
CN1C(=O)CCc2cc(-c3cncc(CNS(=O)(=O)c4ccc(Cl)c(Cl)c4)c3)ccc21

>  <pEC50>
6.81

$$$$
>  <Molecule>
CN1C(=O)CCc2cc(-c3cncc(CN4CCCCC4=O)c3)ccc21

>  <pEC50>
7.64

$$$$
>  <Molecule>
CN1C(=O)CCc2cc(-c3cncc(N4CCCC4=O)c3)ccc21

>  <pEC50>
6.51

$$$$
>  <Molecule>
CCS(=O)(=O)N1CCC[C@H](Oc2cncc(-c3ccc4c(c3)CCC(=O)N4C)c2)C1

>  <pEC50>
6.95

$$$$
>  <Molecule>
Cc1c(-c2cc3c(cc2F)N(C)C(=O)CC3)cncc1C(C)N[S@+]([O-])C(C)(C)C (single isomer, unassigned)

>  <pEC50>
7.59

$$$$
>  <Molecule>
CN1C(=O)CCc2cc(-c3cncc(NCCO)n3)c(F)cc21

>  <pEC50>
7.74

$$$$
>  <Molecule>
CN1C(=O)CCc2cc(-c3cncc(OCCNC(=O)c4ncccc4Cl)c3)ccc21

>  <pEC50>
7.89

$$$$
>  <Molecule>
Cc1noc(C)c1C(=O)NC(C)c1cncc(-c2ccc3c(c2)CCC(=O)N3C)c1Cl (single isomer, unassigned)

>  <pEC50>
7.66

$$$$
